- Test system: CCRIS mutagenicity, Ames/micronucleus/aberration tests
- measurement_protocol: CCRIS mutagenicity studies
- study_conditions: Test System: AMES SALMONELLA TYPHIMURIUM; Strain/Indicator: TA100; Metabolic Activation: RAT, LIVER, S-9, AROCLOR 1254 (10%); Method: STANDARD PLATE
Activity calls are given as the source filed them. No rule for the calls is given here.
recorded_endpoint: mutagenic call

Previously resolved entries follow.
1) O=S(=O)(c1ccc(O)cc1)c1ccc(O)cc1    inactive; negative
2) ClC/C=C/CCl    active; positive
3) CCC1CCC(CCC(=O)[O-])C1.CCC1CCC(CCC(=O)[O-])C1.[Co+2] (stereo unspecified)    inactive; negative
4) CN(C)c1nc(N(C)C)nc(N(C)C)n1    inactive; negative

stdin: I would be grateful if you could share the reported mutagenic call for CN(C)P(=O)(N(C)C)N(C)C .
stdout: inactive; negative

stdin: Try this compound next: CN(C)c1ccc(/C=C/c2ccc([N+](=O)[O-])cc2)cc1
stdout: active; positive
